biological target: Metabotropic glutamate receptor 4 (Homo sapiens, UniProt Q14833)
Sequence (Q14833 whole entry): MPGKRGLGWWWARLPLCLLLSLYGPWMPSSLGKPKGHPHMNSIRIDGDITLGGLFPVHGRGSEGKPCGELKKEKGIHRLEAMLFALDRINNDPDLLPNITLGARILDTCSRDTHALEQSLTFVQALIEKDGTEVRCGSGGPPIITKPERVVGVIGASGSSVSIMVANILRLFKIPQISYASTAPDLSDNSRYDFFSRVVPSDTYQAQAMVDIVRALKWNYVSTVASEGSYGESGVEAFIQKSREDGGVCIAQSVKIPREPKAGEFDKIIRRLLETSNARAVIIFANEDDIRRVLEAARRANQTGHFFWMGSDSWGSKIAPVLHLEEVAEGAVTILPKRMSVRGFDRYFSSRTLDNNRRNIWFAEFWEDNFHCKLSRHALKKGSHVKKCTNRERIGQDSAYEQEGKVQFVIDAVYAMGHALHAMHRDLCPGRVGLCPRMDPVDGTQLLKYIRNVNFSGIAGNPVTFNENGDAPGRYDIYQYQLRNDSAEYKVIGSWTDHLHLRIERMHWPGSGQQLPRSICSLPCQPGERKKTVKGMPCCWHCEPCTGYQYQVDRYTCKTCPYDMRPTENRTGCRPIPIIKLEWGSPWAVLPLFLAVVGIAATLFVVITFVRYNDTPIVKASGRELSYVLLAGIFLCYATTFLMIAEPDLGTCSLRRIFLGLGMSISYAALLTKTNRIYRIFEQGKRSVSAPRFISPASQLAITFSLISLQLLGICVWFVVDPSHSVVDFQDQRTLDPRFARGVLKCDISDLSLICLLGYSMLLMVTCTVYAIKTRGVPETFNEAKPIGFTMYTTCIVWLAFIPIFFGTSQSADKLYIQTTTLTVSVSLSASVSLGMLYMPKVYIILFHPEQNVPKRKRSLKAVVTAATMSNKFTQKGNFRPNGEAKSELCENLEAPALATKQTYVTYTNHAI
assay readout: pEC50
One number for each entry, as −log10 of the molar value.

Consider the following illustrative entries.
line notation: Cc1ccc(S(=O)(=O)n2cc(NC(=O)c3ccccn3)cn2)cc1
pEC50: 5.01

line notation: O=C(Nc1cnn(S(=O)(=O)c2cc(Cl)ccc2F)c1)c1ccccn1
pEC50: 5.65

Give pEC50 for all molecules that follow.
1. Cc1ccc(S(=O)(=O)n2cc(NC(=O)c3nccs3)cn2)cc1C
2. O=C(Nc1cnn(S(=O)(=O)c2cc(F)c(F)cc2F)c1)c1ccccn1
3. Cc1ccc(S(=O)(=O)n2cc(NC(=O)c3ccccn3)cn2)c(C)c1

1: 6.19; 2: 5.75; 3: 6.31

Below is a list of molecules. For each, state its recorded pEC50.
1. O=C(Nc1cnn(S(=O)(=O)c2cc(F)c(F)cc2Cl)c1)c1ccccn1
2. Cc1cc(F)ccc1S(=O)(=O)n1cc(NC(=O)c2ccccn2)cn1

1. 5.93
2. 5.63

----------
target: Metabotropic glutamate receptor 4 (Homo sapiens)
Class field: derived from EC50; ranges lo = under 200 nM, med = from 200 nM up to 300 nM, hi = 300 nM and over

line notation: Cc1cc(S(=O)(=O)n2cc(NC(=O)c3ccccn3)cn2)ccc1Cl
class name: lo
--
line notation: Cc1ccc(S(=O)(=O)n2cc(NC(=O)c3nccs3)cn2)cc1
class name: hi
--
line notation: O=C(Nc1cnn(S(=O)(=O)c2ccc(F)c(F)c2)c1)c1nccs1
class name: hi
--
line notation: Cc1cccc(S(=O)(=O)n2cc(NC(=O)c3ccccn3)cn2)c1
class name: lo

Note: attention shifts to another entry.
Band for `Cc1cccc(S(=O)(=O)n2cc(NC(=O)c3nccs3)cn2)c1` ?
med

----------
Recorded below: pEC50, system Metabotropic glutamate receptor 4 (Homo sapiens).
Numbers only, as −log10 of the molar value.

Please look at the items below and tell me pEC50 for each one, in order.
1. O=C(Nc1cnn(S(=O)(=O)c2cc(Cl)ccc2Cl)c1)c1ccccn1
2. O=C(Nc1cnn(S(=O)(=O)c2ccc(Cl)c(F)c2)c1)c1ccccn1
3. COc1ccc(S(=O)(=O)n2cc(NC(=O)c3ccccn3)cn2)cc1
4. O=C(Nc1cnn(S(=O)(=O)c2ccc(F)c(Cl)c2)c1)c1ccccn1

1. 6.71
2. 5.41
3. 6.77
4. 6.86

----------
Consider compounds characterized by their pEC50 with Metabotropic glutamate receptor 4 (Homo sapiens).
Give bare numbers, as −log10 of the molar value.

// known answers, use as guide
line notation: O=C(Nc1cnn(S(=O)(=O)c2cc(F)c(F)c(F)c2)c1)c1ccccn1
number: 6.63
//
line notation: CCc1ccc(S(=O)(=O)n2cc(NC(=O)c3ccccn3)cn2)cc1
number: 6.61
//
line notation: O=C(Nc1cnn(S(=O)(=O)c2cccc(Cl)c2F)c1)c1ccccn1
number: 5.28
//
line notation: O=C(Nc1cnn(S(=O)(=O)c2ccc(F)c(F)c2F)c1)c1ccccn1
number: 6.55
//
line notation: Cc1ccc(S(=O)(=O)n2cc(NC(=O)c3ccccn3)cn2)cc1C
number: 6.84
//
line notation: Cc1ccc(S(=O)(=O)n2cc(NC(=O)c3ccccn3)cn2)cc1F
number: 6.86
//
line notation: O=C(Nc1cnn(S(=O)(=O)c2ccc(Cl)c(Cl)c2)c1)c1ccccn1
number: 6.69
//
line notation: O=C(Nc1cnn(S(=O)(=O)c2ccc(F)cc2F)c1)c1ccccn1
number: 5.79

For every item in the list below, what is its measured pEC50?
1. COc1ccc(S(=O)(=O)n2cc(NC(=O)c3ccccn3)cn2)cc1Cl
2. Cc1cc(S(=O)(=O)n2cc(NC(=O)c3ccccn3)cn2)ccc1F
3. O=C(Nc1cnn(S(=O)(=O)c2ccc(C(F)(F)F)cc2)c1)c1ccccn1

6.59
6.91
6.58

Give one value of pEC50 per listed compound.
1. O=C(Nc1cnn(S(=O)(=O)c2ccc(Cl)cc2F)c1)c1ccccn1
2. O=C(Nc1cnn(S(=O)(=O)c2ccc(F)c(F)c2)c1)c1ccccn1

1. 6.89
2. 5.76
